Target: L858R/T790M/C797S EGFR (Homo sapiens, UniProt P00533, C797S/L858R/T790M)
Construct: expressed in transfected cells; host or cells: H1975 clone #25 (lentiviral over-expression, endogenous EGFR knocked out by sgRNA)
Sequence (P00533 25-1210 T790M/C797S/L858R): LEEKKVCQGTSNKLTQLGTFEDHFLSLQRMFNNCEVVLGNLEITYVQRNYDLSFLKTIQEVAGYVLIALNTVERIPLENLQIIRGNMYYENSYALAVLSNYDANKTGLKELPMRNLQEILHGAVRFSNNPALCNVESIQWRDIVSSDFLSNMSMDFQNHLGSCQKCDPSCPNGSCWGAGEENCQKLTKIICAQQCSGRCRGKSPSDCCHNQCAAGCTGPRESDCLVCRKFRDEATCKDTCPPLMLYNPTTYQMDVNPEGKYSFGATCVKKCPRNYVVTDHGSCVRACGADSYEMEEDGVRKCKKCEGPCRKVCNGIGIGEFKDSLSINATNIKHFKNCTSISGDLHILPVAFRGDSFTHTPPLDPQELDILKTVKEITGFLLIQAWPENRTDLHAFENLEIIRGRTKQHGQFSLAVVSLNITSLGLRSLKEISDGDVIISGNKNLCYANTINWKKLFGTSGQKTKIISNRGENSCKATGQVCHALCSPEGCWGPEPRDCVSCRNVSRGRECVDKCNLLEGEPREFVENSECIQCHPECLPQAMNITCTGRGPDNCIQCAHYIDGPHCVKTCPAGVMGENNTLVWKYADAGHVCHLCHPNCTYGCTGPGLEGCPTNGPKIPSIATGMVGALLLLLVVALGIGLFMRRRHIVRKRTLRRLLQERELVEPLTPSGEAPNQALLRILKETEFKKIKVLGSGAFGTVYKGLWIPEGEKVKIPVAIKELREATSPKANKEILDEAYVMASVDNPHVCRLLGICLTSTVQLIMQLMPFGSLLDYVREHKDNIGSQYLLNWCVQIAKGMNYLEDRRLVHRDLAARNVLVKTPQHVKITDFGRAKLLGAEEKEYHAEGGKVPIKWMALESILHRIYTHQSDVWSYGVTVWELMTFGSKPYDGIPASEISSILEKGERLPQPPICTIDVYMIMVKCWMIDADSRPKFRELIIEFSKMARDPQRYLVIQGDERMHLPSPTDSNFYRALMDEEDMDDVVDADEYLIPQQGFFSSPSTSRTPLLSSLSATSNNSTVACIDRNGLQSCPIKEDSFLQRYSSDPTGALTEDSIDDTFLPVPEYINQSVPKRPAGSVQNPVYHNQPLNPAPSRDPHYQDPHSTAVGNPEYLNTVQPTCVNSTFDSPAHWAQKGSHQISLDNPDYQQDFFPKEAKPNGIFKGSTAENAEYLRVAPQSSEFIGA
Experiment: EGFR degradation HTRF assay in H1975-clone #25 (LTC) cells
Format: cell-based
Conditions: H1975 # 25-LTC (L858R/T790M/C797S), 16h treatment, HTRF
Description: H1975-clone #28(Del19/T790M/C797S, or abbr: DTC), H1975-clone #23(Del19/C797S, or abbr: DC), H1975-clone #25(L858R/T790M/C797S, or abbr: LTC) and H1975-clone #8 (L858R/C797S, or abbr: LC). EGFR-Del19:T790M/C797S, EGFR-Del19/C797S, EGFR-L858R/T790M/C797S and EGFR-L858R/C797S were stably expressed in H1975 cell lines by lentivirus-mediated over-expression, respectively. […]
Quantity kind: DC50 (nM)

{"Cpd smiles": "Cc1cc2cc(n1)-c1cnn(C)c1OCCC[C@@H](C)CN1/C(=N/C2=O)Nc2ccc(C(=O)N(C)C[C@H]3CCN(CCc4cc(F)c([C@H]5CCC(=O)NC5=O)c(F)c4)CC3(F)F)cc21", "Target of assay": "L858R/T790M/C797S EGFR (Homo sapiens, UniProt P00533, C797S/L858R/T790M)", "DC50 / nM": 1.63}

A = Cc1cc2cc(n1)-c1cnn(C)c1OCC[C@H]1C[C@@H]1CN1/C(=N/C2=O)Nc2ccc(N3CCN(CC4CN(c5cc(F)c([C@H]6CCC(=O)NC6=O)c(F)c5)C4)CC3)cc21
B = Cc1cc2cc(n1)-c1cnn(C)c1OCCC[C@@H](C)CN1/C(=N/C2=O)Nc2ccc(CN3CCN(CC4CN(c5cc(F)c([C@H]6CCC(=O)NC6=O)c(F)c5)C4)CC3)cc21
Asked: Sorting ascending by DC50, which comes first: A or B ? Respond with the label that goes with your answer.
Given back: B
